experiment.summary: Murine plasma pharmacokinetics assay
Assay type: in vivo, NIH-III nude mice
condition.label: female, NIH-III nude, mouse, plasma, ip, 80 mg/kg, 80 mg/kg intraperitoneal, plasma, observed; read-out: AUC0-24
measurement.name: AUC(0-t)

>>> observed_value("COc1cc(OC)c(Cl)c(N2Cc3cnc(Nc4ccccc4)nc3N(C3CCN(C(=O)/C=C/C[N+](C)(C)Cc4c([N+](=O)[O-])ncn4C)CC3)C2=O)c1Cl.[Br-]")
"~900 µM·h"

* * *

Catalogue of melting point values
measurement.name: melting point

>>> observed_value("COc1cc(OC)c(Cl)c(N2Cc3cnc(Nc4ccc(N5CCOCC5)cc4)nc3N(C3CCN(C(=O)/C=C/C[N+](C)(C)Cc4c([N+](=O)[O-])ncn4C)CC3)C2=O)c1.[Br-]")
"241 to 244 °C"
>>> observed_value("CNc1ncc2c(n1)N([C@H]1CCN(C(=O)/C=C/C[N+](C)(C)Cc3c([N+](=O)[O-])ncn3C)C1)C(=O)N(c1c(Cl)c(OC)cc(OC)c1Cl)C2.[Br-]")
"195 to 198 °C"
>>> observed_value("COc1cc(OC)c(Br)c(-c2cc3cnc(NC(C)C)cc3n(C3CCN(C(=O)/C=C/C[N+](C)(C)Cc4c([N+](=O)[O-])ncn4C)CC3)c2=O)c1Br.[Br-]")
"219 °C"
>>> observed_value("COc1cc(OC)cc(N2Cc3cnc(Nc4ccc(N5CCOCC5)cc4)nc3N(C3CCN(C(=O)/C=C/C[N+](C)(C)Cc4c([N+](=O)[O-])ncn4C)CC3)C2=O)c1.[Br-]")
"192 to 195 °C"
>>> observed_value("COc1cc(OC)c(Cl)c(N2Cc3cnc(Nc4ccc(F)cc4)nc3N(C3CCN(C(=O)/C=C/C[N+](C)(C)Cc4c([N+](=O)[O-])ncn4C)CC3)C2=O)c1Cl.O=C([O-])C(F)(F)F")
"162 to 165 °C"
>>> observed_value("COc1cc(OC)c(Br)c(-c2cc3cnc(NC(C)C)cc3n(C3CCN(C(=O)/C=C/CN(C)C)CC3)c2=O)c1Br")
"251 to 254 °C"
>>> observed_value("COc1cc(OC)c(Cl)c(N2Cc3cnc(Nc4ccccc4)nc3N(C3CCN(C(=O)/C=C/C[N+](C)(C)Cc4c([N+](=O)[O-])ncn4C)CC3)C2=O)c1.[Br-]")
"181 to 184 °C"

* * *

Tested on: FGFR2 in SUM52 cells (phospho-ERK1/2)
experiment.summary: Drug washout Western blot assay, SUM52 cells
Type: cell-based
condition.label: SUM52; 1000 nM, 30 min, washout prior to FGF-stimulation
measurement.name: phospho-ERK1/2 after extensive drug washout

>>> observed_value("CCN(CC)CCCCNc1ncc2cc(-c3cc(OC)cc(OC)c3)c(NC(=O)NC(C)(C)C)nc2n1 [PD173074, reference compound]")
"restoration"
>>> observed_value("CNc1ncc2c(n1)N([C@H]1CCN(C(=O)/C=C/CN(C)C)C1)C(=O)N(c1c(Cl)c(OC)cc(OC)c1Cl)C2")
"restoration"

* * *

experiment.summary: Murine plasma pharmacokinetics assay
Format: in vivo, NIH-III nude mice
condition.label: female, NIH-III nude, mouse, plasma, ip, 80 mg/kg, 80 mg/kg intraperitoneal, plasma, elimination phase; read-out: T1/2 (converted)
measurement.name: half-life (min)

>>> observed_value("COc1cc(OC)c(Cl)c(N2Cc3cnc(Nc4ccccc4)nc3N(C3CCN(C(=O)/C=C/C[N+](C)(C)Cc4c([N+](=O)[O-])ncn4C)CC3)C2=O)c1Cl.[Br-]")
107

* * *

Tested on: SUM52 cells
experiment.summary: Oxic and anoxic anti-proliferative activity of the prodrugs
condition.label: ratio of oxic and anoxic IC50
Catalogue of Hypoxic Cytotoxicity Ratio (HCR), SUM52 values
measurement.name: Hypoxic Cytotoxicity Ratio (HCR), SUM52

>>> observed_value("COc1cc(OC)c(Br)c(-c2cc3cnc(NC(C)C)nc3n(C3CCN(C(=O)/C=C/C[N+](C)(C)Cc4c([N+](=O)[O-])ncn4C)CC3)c2=O)c1Br.[Br-]")
9
>>> observed_value("COc1cc(OC)c(Cl)c(-c2cc3cnc(NC(C)C)cc3n(C3CCN(C(=O)/C=C/C[N+](C)(C)Cc4c([N+](=O)[O-])ncn4C)CC3)c2=O)c1Cl.[Br-]")
106
>>> observed_value("COc1cc(OC)c(Cl)c(N2Cc3cnc(Nc4ccc(N5CCOCC5)cc4)nc3N(C3CCN(C(=O)/C=C/C[N+](C)(C)Cc4c([N+](=O)[O-])ncn4C)CC3)C2=O)c1.[Br-]")
22

* * *

study.system: FGFR1 (Homo sapiens, UniProt P11362)
Sequence (P11362 22-822): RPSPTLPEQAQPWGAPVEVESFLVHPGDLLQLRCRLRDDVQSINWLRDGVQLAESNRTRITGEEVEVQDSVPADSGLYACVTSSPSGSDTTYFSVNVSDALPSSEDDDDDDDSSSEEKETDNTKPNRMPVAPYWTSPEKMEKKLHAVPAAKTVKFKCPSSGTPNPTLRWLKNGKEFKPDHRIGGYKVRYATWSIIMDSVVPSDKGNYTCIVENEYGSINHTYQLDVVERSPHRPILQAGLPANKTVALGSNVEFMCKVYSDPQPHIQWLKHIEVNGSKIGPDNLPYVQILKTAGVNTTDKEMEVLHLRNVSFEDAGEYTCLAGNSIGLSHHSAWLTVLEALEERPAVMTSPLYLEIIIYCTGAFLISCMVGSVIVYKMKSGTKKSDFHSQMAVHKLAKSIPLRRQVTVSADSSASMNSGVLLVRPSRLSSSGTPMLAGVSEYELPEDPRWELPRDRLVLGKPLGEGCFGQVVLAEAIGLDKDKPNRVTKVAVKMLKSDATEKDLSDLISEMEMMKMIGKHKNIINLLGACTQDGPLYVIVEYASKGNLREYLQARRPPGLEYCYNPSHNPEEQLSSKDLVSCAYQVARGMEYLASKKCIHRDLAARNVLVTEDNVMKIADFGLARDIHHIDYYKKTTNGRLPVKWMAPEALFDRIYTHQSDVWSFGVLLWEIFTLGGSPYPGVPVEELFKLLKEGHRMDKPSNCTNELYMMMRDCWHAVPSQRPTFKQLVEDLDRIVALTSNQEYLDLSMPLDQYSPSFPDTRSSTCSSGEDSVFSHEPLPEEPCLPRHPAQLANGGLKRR
experiment.summary: Isolated enzyme FRET-based Z-Lyte kinase inhibition assay
condition.label: means from 3 independent experiments; read-out: Isolate Enzyme Inhibition IC50, FGFR1
pIC50: −log10 of the molar value.
measurement.name: pIC50

>>> observed_value("COc1cccc(Nc2ncc3cc(-c4c(Cl)c(OC)cc(OC)c4Cl)c(=O)n(C4CCN(C(=O)/C=C/CN(C)C)CC4)c3n2)c1")
9.15
>>> observed_value("COc1cc(OC)c(Cl)c(-c2cc3cnc(NC4CCOCC4)nc3n(C3CCN(C(=O)/C=C/CN(C)C)CC3)c2=O)c1Cl")
9.05
>>> observed_value("COc1cc(OC)c(Cl)c(N2Cc3cnc(NC4CCCCC4)nc3N([C@H]3CCN(C(=O)/C=C/CN(C)C)C3)C2=O)c1Cl")
8.92

* * *

Catalogue of melting point values
measurement.name: melting point

>>> observed_value("COc1cc(OC)c(Cl)c(-c2cc3cnc(NC(C)C)cc3n(C3CCN(C(=O)/C=C/CN(C)C)CC3)c2=O)c1Cl [Compound 149]")
"243 to 246 °C"
>>> observed_value("COc1cc(OC)c(Cl)c(N2Cc3cnc(NC(C)C)nc3N(C3CCN(C(=O)/C=C/C[N+](C)(C)Cc4c([N+](=O)[O-])ncn4C)CC3)C2=O)c1Cl.[Br-] [Compound 202]")
"171 to 174 °C"
>>> observed_value("CNc1cc2c(cn1)cc(-c1c(Cl)c(OC)cc(OC)c1Cl)c(=O)n2C1CCN(C(=O)/C=C/CN(C)C)CC1 [Compound 148]")
"209 to 212 °C"
>>> observed_value("COc1cc(OC)c(Cl)c(N2Cc3cnc(Nc4ccn(C)n4)nc3N(C3CCN(C(=O)/C=C/CN(C)C)CC3)C2=O)c1Cl [Compound 160]")
"203 °C"
>>> observed_value("COc1cc(OC)c(Cl)c(N2Cc3cnc(Nc4cccnc4)nc3N(C3CCN(C(=O)/C=C/CN(C)C)CC3)C2=O)c1Cl [Compound 158]")
"207 to 209 °C"
>>> observed_value("COc1cc(OC)c(Cl)c(N2Cc3cnc(Nc4ccccn4)nc3N(C3CCN(C(=O)/C=C/CN(C)C)CC3)C2=O)c1Cl [Compound 157]")
"224 to 227 °C"
>>> observed_value("COc1cc(OC)c(Cl)c(N2Cc3cnc(NC4CCOCC4)nc3N(C3CCN(C(=O)/C=C/C[N+](C)(C)Cc4c([N+](=O)[O-])ncn4C)CC3)C2=O)c1Cl.O=C([O-])C(F)(F)F [Compound 203]")
"157 to 160 °C"
>>> observed_value("COc1cc(OC)c(Cl)c(N2Cc3cnc(Nc4ccc(N5CCOCC5)cc4)nc3N(C3CCN(C(=O)/C=C/C[N+](C)(C)Cc4c([N+](=O)[O-])ncn4C)CC3)C2=O)c1Cl.[Br-] [Compound 218]")
"> 295 °C"
>>> observed_value("COc1cc(OC)c(Cl)c(-c2cc3cnc(NC(C)C)cc3n(C3CCN(C(=O)/C=C/C[N+](C)(C)Cc4c([N+](=O)[O-])ncn4C)CC3)c2=O)c1Cl.[Br-] [Compound 215]")
"202 to 205 °C"
>>> observed_value("COc1cc(OC)c(Cl)c(-c2cc3cnc(Nc4ccccc4)cc3n(C3CCN(C(=O)/C=C/CN(C)C)CC3)c2=O)c1Cl [Compound 232]")
"230 to 233 °C"
>>> observed_value("COc1cc(OC)c(Cl)c(N2Cc3cnc(NC(C)C)nc3N([C@H]3CCN(C(=O)/C=C/C[N+](C)(C)Cc4c([N+](=O)[O-])ncn4C)C3)C2=O)c1Cl.[Br-] [Compound 201]")
"184 to 187 °C"
>>> observed_value("COc1cc(OC)c(Cl)c(N2Cc3cnc(Nc4ccncc4)nc3N(C3CCN(C(=O)/C=C/CN(C)C)CC3)C2=O)c1Cl [Compound 159]")
"> 300 °C"

* * *

study.system: FGFR3 (Homo sapiens, UniProt P22607)
Sequence (P22607 23-806): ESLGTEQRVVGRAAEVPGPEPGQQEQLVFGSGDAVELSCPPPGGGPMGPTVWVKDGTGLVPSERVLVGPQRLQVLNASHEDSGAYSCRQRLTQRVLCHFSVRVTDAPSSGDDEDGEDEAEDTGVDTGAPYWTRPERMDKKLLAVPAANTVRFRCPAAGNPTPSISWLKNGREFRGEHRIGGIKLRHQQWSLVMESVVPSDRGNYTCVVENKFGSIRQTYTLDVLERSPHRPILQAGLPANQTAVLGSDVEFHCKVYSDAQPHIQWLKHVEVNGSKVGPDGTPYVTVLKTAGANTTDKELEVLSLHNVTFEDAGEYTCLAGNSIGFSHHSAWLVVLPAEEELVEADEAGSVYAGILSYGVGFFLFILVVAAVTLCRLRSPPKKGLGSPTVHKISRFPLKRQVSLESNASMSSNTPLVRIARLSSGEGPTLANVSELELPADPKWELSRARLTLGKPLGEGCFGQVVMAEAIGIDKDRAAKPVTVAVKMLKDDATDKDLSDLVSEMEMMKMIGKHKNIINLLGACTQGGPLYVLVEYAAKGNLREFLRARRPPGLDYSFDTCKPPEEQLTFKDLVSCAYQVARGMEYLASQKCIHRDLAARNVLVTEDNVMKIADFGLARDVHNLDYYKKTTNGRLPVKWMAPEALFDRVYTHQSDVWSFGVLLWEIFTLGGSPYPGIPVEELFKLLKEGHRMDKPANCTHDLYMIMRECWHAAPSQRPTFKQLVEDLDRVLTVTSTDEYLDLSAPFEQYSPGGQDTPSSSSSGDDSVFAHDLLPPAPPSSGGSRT
experiment.summary: Isolated enzyme FRET-based Z-Lyte kinase inhibition assay
condition.label: means from 3 independent experiments; read-out: Isolate Enzyme Inhibition IC50, FGFR3
measurement.name: IC50 (nM)

>>> observed_value("CNc1ncc2cc(-c3c(Cl)c(OC)cc(OC)c3Cl)c(=O)n(C(C)c3cccc(NC(=O)/C=C/CN(C)C)c3)c2n1 (stereo not drawn) [Compound 146]")
6.2
>>> observed_value("COc1cc(OC)c(Cl)c(-c2cc3cnc(Nc4ccccc4)nc3n(C3CCN(C(=O)/C=C/CN(C)C)CC3)c2=O)c1Cl [Compound 138]")
5.1
>>> observed_value("COc1cc(OC)c(Cl)c(-c2cc3cnc(NC4CCOCC4)nc3n(C3CCN(C(=O)/C=C/CN(C)C)CC3)c2=O)c1Cl [Compound 135]")
6.3
>>> observed_value("CNc1ncc2cc(-c3c(Cl)c(OC)cc(OC)c3Cl)c(=O)n(C3CCN(C(=O)/C=C/CN(C)C)CC3)c2n1 [Compound 132]")
4.9
>>> observed_value("COc1cc(OC)c(Br)c(-c2cc3cnc(Nc4ccccc4)nc3n(C3CCN(C(=O)/C=C/CN(C)C)CC3)c2=O)c1Br [Compound 152]")
2
>>> observed_value("CNc1ncc2cc(-c3c(Cl)c(OC)cc(OC)c3Cl)c(=O)n(Cc3cccc(NC(=O)/C=C/CN(C)C)c3)c2n1 [Compound 143]")
8

Every entry's value here was drawn from patent US11192890B2.
